Target: T1, Anti-CD28 Fab (SEQ ID NOs: 696, 697)
T1 construct: Biotinylated and captured on neutravidin coated plates in the phage ELISA
T1 sequence (VH, as listed by the source, chain 1 of 2): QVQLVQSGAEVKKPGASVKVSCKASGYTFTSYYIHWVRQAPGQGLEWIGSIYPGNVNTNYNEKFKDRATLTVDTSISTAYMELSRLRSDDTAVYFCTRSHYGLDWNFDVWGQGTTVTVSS
T1 sequence (VL, as listed by the source, chain 2 of 2): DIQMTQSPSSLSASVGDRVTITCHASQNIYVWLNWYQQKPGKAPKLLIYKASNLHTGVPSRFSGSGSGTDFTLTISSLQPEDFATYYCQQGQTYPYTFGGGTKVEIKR
Assay: phage ELISA, clonal phage on biotinylated anti-CD28 Fab captured on neutravidin plates;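 note: crude clonal phage supernatants added to wells pretreated with CD28 antigen or with blocking buffer only, bound phage detected by HRP-linked anti-M13 antibody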
RESULT_TYPE: Anti-CD28 Fab signal (phage binding ELISA)
I'd appreciate a reply containing only the number, no unit.

## Input Any idea what its Anti-CD28 Fab signal (phage binding ELISA) is? The binder is YCEGHHRIYMQKCL [Phage-1131]
## Output 1.26

New cases:
## Input Any idea what its Anti-CD28 Fab signal (phage binding ELISA) is? The binder is YCDGHVEEYMTKCL [Phage-1141]
## Output 1.24

## Input Any idea what its Anti-CD28 Fab signal (phage binding ELISA) is? The binder is YCDGHSSVYMLKCL [Phage-1130]
## Output 1.26

## Input Any idea what its Anti-CD28 Fab signal (phage binding ELISA) is? The binder is YCEGHTQEYMQKCL [Phage-1138]
## Output 1.24

## Input Any idea what its Anti-CD28 Fab signal (phage binding ELISA) is? The binder is YCAGLFEEYMSKCL [Phage-1135]
## Output 1.25
